Tested on: Yap1 mRNA
Assay Text: Antisense inhibition of human Yap1 in SNU-449 cells by modified oligonucleotides, single dose (Example 5, RTS36584)
Assay type: cell-based
Condition Description: Table 46; Yap1 mRNA as percent of untreated control, SNU-449 cells, single dose
Strand notation (5' to 3'): a small letter for the sugar, then the base; units joined by * are phosphorothioate-linked, units joined directly phosphodiester-linked; [ ] holds rarer units or linkages, { } end groups; capitals alone tell only the bases. e = 2'-O-(2-methoxyethyl) (MOE); k = constrained ethyl (cEt); [5mC] = 5-methylcytosine; d = 2'-deoxy (DNA)
Measured YAP1 (% UT) by item
Property Measured: YAP1 (% UT)

* 1198809 (antisense kG*kG*dA*dA*dA*dT*dT*dG*dT*d[5mC]*dT*k[5mC]*eA*kT*eG*k[5mC]) [Compound 1198809] | 27 % UT
* 1198849 (kG*kA*dT*dT*dT*dA*dG*dG*dA*dT*dG*k[5mC]*eA*kT*eG*kG; antisense) [Compound 1198849] | 42 % UT
* 1074461 (kG*kA*kA*dA*dT*dT*dG*dT*d[5mC]*dT*d[5mC]*dA*dT*kG*k[5mC]*k[5mC]) [Compound 1074461] | 14 % UT
* 1198854 (kA*kT*dA*dT*dG*dG*dT*dT*dT*dT*dG*kT*eG*kT*eG*kT; antisense) [Compound 1198854] | 56 % UT
* 1198851 (CAGATTTAGGATGCAT; antisense; chemistry not fully specified) [Compound 1198851] | 82 % UT
* 1198842 (kG*kT*dG*d[5mC]*dT*dT*dT*dG*dG*dA*dA*kG*eA*kT*e[5mC]*kT; antisense) [Compound 1198842] | 37 % UT
* 1198871 (kT*kT*dT*dA*dT*dG*dT*dA*dA*dT*dA*kT*eT*kG*e[5mC]*kA; antisense) [Compound 1198871] | 77 % UT
* 1198889 (kT*kT*dA*dG*dA*d[5mC]*dT*dA*dA*dG*dT*kA*eA*kG*eG*kT; antisense) [Compound 1198889] | 27 % UT
* 1198864 (kA*kT*dA*dT*dT*dG*d[5mC]*dA*dA*dT*d[5mC]*kT*eG*kT*e[5mC]*kT; antisense) [Compound 1198864] | 56 % UT
* 1198863 (kA*kT*dT*dG*d[5mC]*dA*dA*dT*d[5mC]*dT*dG*kT*e[5mC]*kT*eG*kA; antisense) [Compound 1198863] | 65 % UT
* 1198867 (kG*kT*dA*dA*dT*dA*dT*dT*dG*d[5mC]*dA*kA*eT*k[5mC]*eT*kG; antisense) [Compound 1198867] | 25 % UT
* 1198806 (antisense kA*kA*dT*dT*dG*dT*d[5mC]*dT*d[5mC]*dA*dT*kG*e[5mC]*k[5mC]*eT*kT) [Compound 1198806] | 33 % UT
* 1095427 (antisense k[5mC]*kA*d[5mC]*dT*dG*dA*dG*dG*dT*dA*dT*kA*eA*k[5mC]*eT*kG) [Compound 1095427] | 45 % UT
